assay: Uptake and clearance of TCAP-1 in plasma after IV or SC injection (TCAP ELISA); format: in vivo, rat; conditions: rat, in vivo, iv, highest dose; read-out: plasma clearance half-life
Ends that are not written are not given here.
REPORTED PROPERTY: half-life (min)
Hi! Could you send only the number? It should be in min, unit omitted.

half-life for QQLLGTGRVQGYDGYFVLSVEQYLELSDSANNIHFMRQSEI-NH2 (C-terminus assumed) [TCAP-1] is 16

* * *

assay: Uptake and clearance of TCAP-1 in plasma after IV or SC injection (TCAP ELISA); type: in vivo, rat; details: rat, in vivo, iv, lowest dose; read-out: plasma clearance half-life
Ends that are not written are not given here.
REPORTED PROPERTY: half-life (min)
Hi! Could you send only the number? It should be in min, unit omitted.

half-life for QQLLGTGRVQGYDGYFVLSVEQYLELSDSANNIHFMRQSEI-NH2 (C-terminus assumed) [TCAP-1] is 4
